All values here come from PubChem BioAssay (NCI).

Known TGI of a selection of molecules
tested on: LOX IMVI melanoma; experiment: NCI tumour cell line growth inhibition, 48 h
measurement_kind: TGI

> print(dat)
                                    molecule  measurement.kind    result
 1  NS(=O)(=O)c1cc2c(cc1Cl)NC(Cc1ccccc1)NS2(=O)=O (configuration not stated)               TGI  > 100 µM
 2  O=C1C(Br)=CC2(C=C1Br)CCN=c1c2c(O)c2nc3ccccc3c3ccnc1c23               TGI   4.35 µM
 3  N/N=C1\C(=O)N(C2CCCCC2)C(=O)C1C(=O)NC1CCCCC1 (configuration not stated)               TGI  > 100 µM
 4  C[C@]12CCC[C@H](Cl)C1(O)C[C@H](C(=O)O)CC2 (some centres not stated)               TGI  > 100 µM
 5  Cc1ccc(NC(=O)NC(=O)c2ccc([N+](=O)[O-])cc2[N+](=O)[O-])cc1Oc1ncc(Cl)cn1               TGI   11.9 µM
 6   O=C1Nc2cccc(Cl)c2/C1=C\c1c(Cl)nc2sccn12               TGI  > 100 µM
 7  Cc1ccc(-c2c(C#N)c(S)n(NS(=O)(=O)c3ccc(C)cc3)c(=O)c2C#N)cc1               TGI  > 100 µM
 8  Cc1cc2c(=O)n(-c3ccc(F)cc3)c(C)nc2c(C(=O)O)c1C               TGI  > 100 µM
 9  CSc1nc(-c2cc3c(c(SC)n2)CCCCC3)cc2c1CCCCC2               TGI  > 100 µM
10  CSC(C1c2ccccc2N(C)C2=NC(=O)N(C)C(=O)C21Cl)S(=O)(=O)c1ccc(C)cc1 (configuration not stated)               TGI  > 100 µM
11  Nc1nc(SCCNC(=O)CCc2ccc(O)cc2)nc2c1ncn2C1OC(CO)C(O)C1O (configuration not stated)               TGI  > 203 µM
12  CC1=CC(=O)CCC2(C)C1CC[C@@H]2OC=O (some centres not stated)               TGI  > 100 µM

* * *

test system: HOP-92 NSCLC; assay: NCI tumour cell line growth inhibition, 48 h
measurement_kind: GI50

> print(dat)
                               smiles.input  measurement.kind   result
1  CC(C)[C@@]12C[C@@H](OC(=O)[C@H]3CO3)[C@@](C)(O1)[C@@H]1CC[C@@H](C)[C@H]1[C@@H]2OC(=O)/C=C/c1ccccc1              GI50  9220 nM
2     CCN(CC)CCCNc1cccc2c(SCc3ccccc3)ccnc12              GI50  2180 nM
3  O=[N+]([O-])c1ccc(-c2nc(-c3ccccc3)c(-c3ccccc3)n2-c2ccccc2)cc1              GI50  2420 nM
4  COc1cc(/C=C/c2cc(/C=C/c3ccc(O)c(OC)c3)n(-c3c(C)cccc3C)c(=O)n2)ccc1O              GI50  2070 nM
5       NC(=NCCCOc1ccc(Cl)cc1)Nc1ccc(Cl)cc1              GI50  1510 nM
6        N#Cc1c(-c2ccc(Cl)cc2)n(O)c2ccccc12              GI50  1020 nM
7  CCOc1ccc([C@@H]2[C@@H](Oc3ccccc3)C(=O)N2c2cc(OC)c(OC)c(OC)c2)cc1              GI50   642 nM
8  CC(C)CCOc1ccc(-c2n[nH]c(C(F)(F)F)c2-c2cncc(C#N)c2)c(O)c1              GI50   519 nM

* * *

Known TGI of a selection of molecules
tested on: NCI-H460 lung; test: NCI tumour cell line growth inhibition, 48 h
measurement_kind: TGI

> print(dat)
                                    molecule  measurement.kind    result
 1  CCC(C)n1cc(C)c2c(C(=O)NCc3c(C)cc(C)[nH]c3=O)cc(Br)cc21 (stereo not given)               TGI  > 100 µM
 2  C[C@H](Nc1c(O)c2c(c(O)c1Cl)C(=O)C=CC2=O)C(=O)Nc1ccc([N+](=O)[O-])cc1               TGI   6.29 µM
 3  O=[N+]([O-])c1cccc2nc3ccccc3c(NCCc3cccc[n+]3[O-])c12               TGI  0.174 µM
 4  COC(=O)C1(Cc2ccc3c(c2)CCC3)Cc2ccc3c(c2C1O)CCC3 (stereo not given)               TGI   54.4 µM
 5                   O=C/C(=C(/Br)I)c1ccccc1               TGI   26.4 µM
 6  COc1ccc(/C(=N/NC(=O)NN)C(c2ccc(OC)cc2)C2(O)CNc3c(Cl)cc(Cl)cc32)cc1 (stereo not given)               TGI  > 100 µM
 7  O=c1oc2ccccc2c(O)c1C(c1ccco1)c1c(O)c2ccccc2oc1=O               TGI  > 100 µM
 8                CCOC(=O)C(=O)Nc1ccc(C)cc1C               TGI  > 100 µM
 9  CC1=C2c3c(C)ccc4ccc(C)c(c34)C2(O)C(C)C1=O (stereo not given)               TGI  > 100 µM
10  CSC(C1c2ccccc2N(C)C2=NC(=O)N(C)C(=O)C21Cl)S(=O)(=O)c1ccc(C)cc1 (stereo not given)               TGI  > 100 µM

* * *

Known TGI of a selection of compounds
test system: HOP-62 NSCLC; experiment: NCI tumour cell line growth inhibition, 48 h
measurement_kind: TGI

> print(dat)
                                    compound     result
 1  COc1ccc2oc3c4c2c1CCC4CCC3=O (stereo not given)   > 100 µM
 2     CC(N)C(C)Cc1ccccc1 (stereo not given)   > 100 µM
 3  CCC(C)n1cc(C)c2c(C(=O)NCc3c(C)cc(C)[nH]c3=O)cc(Br)cc21 (stereo not given)   > 100 µM
 4  COCC1OC(OC2C3=C(C(C)C)CCC3(C)/C=C3\C(CCC3(O)COC)C(C)C2O)C(O)C2OC3OC12OC3(C)C1CO1 (stereo not given)   > 100 µM
 5  N#Cc1c(-c2ccc([N+](=O)[O-])cc2)cc(-c2ccc(Nc3ccnc4cc(C(F)(F)F)ccc34)cc2)nc1N    51.3 µM
 6  COC(=O)C(CCCC1(c2ccccc2)OCCO1)C(C)=O (stereo not given)   > 100 µM
 7            CCOC(=O)C(=O)Nc1c(F)cc(F)cc1Br   > 100 µM
 8  O=c1oc2ccccc2c(O)c1C(c1ccco1)c1c(O)c2ccccc2oc1=O   > 100 µM
 9  COc1ccc(/C(=N/NC(=O)NN)C(c2ccc(OC)cc2)C2(O)CNc3c(Cl)cc(Cl)cc32)cc1 (stereo not given)   > 100 µM
10  COC(OC)c1cccc2c1C(=O)CCC1(O)c3ccccc3C1C2 (stereo not given)   > 100 µM
11  CC1(C)C(=O)C(C)(C)C12SSC1(S2)C(C)(C)C(=O)C1(C)C   > 100 µM
12  CN(C)CCNc1ccc2c(=O)n(CCN(C)C)c(=O)n3c4ccc([N+](=O)[O-])cc4c(=O)c1c23    3.85 µM
13  COC1(OC)CC2C=C(S(=O)(=O)c3ccccc3)C1N(Cc1ccccc1)C2=O (stereo not given)   > 100 µM
14    COc1cccc(NC(=S)Nn2c(C)nc3ccccc3c2=O)c1   > 100 µM
15  CCC[CH2][Sn]([CH2]CCC)([O]C(=O)c1cc(F)cc(F)c1)[O]C(=O)c1cc(F)cc(F)c1    4.19 µM
16                   O=C/C(=C(/Br)I)c1ccccc1    29.8 µM
17  CC1(C23CC4CC(CC(C4)C2)C3)n2c(=O)n(-c3ccccc3)c(=O)n2C1(C)C12CC3CC(CC(C3)C1)C2 (stereo not given)   > 100 µM
18  Cc1nc2sccn2c(=O)c1CCN1CCC(=C(c2ccc(F)cc2)c2ccc(F)cc2)CC1    33.4 µM
19  O=c1[nH]c(Nc2cccc(C(F)(F)F)c2)nc2nc[nH]c12   > 100 µM
20  Cn1nc(/C=C\C(=O)N2CC(CCl)c3c2cc(N)c2ccccc32)cc1/C=C/C(=O)N1CC(CCl)c2c1cc(N)c1ccccc21 (stereo not given)  0.0411 µM
